Biological target: rat P2X3 receptor (Rattus norvegicus)
Construct: expressed in transfected cells; host or cells: CHO-K1
Sequence (P49654 1-397): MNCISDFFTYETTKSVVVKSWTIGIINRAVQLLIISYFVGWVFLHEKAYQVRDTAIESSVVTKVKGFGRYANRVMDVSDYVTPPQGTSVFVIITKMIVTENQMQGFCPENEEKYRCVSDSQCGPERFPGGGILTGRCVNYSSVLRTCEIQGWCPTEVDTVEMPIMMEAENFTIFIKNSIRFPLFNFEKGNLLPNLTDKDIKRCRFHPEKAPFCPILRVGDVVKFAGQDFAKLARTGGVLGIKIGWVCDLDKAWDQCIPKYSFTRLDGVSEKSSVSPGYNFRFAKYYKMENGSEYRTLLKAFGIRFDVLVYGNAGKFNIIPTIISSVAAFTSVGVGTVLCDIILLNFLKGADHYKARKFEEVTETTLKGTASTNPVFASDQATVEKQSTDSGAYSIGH
Assay: P2X3/P2X2/3 FLIPR (Fluorometric Imaging Plate Reader) Assay, P2X3
Format: cell-based
Conditions: CHO-K1 cells transfected with rat P2X3; agonist α,β-meATP 1 μM; Table 1; read-out: P2X3 pKi (converted)
Endpoint label: Ki (nM)

Previously resolved entries follow.
>  <Molecule>
COCC(C)NC(=O)c1cc(-c2ccc(C)cc2)cc(-n2nncc2C(C)C)c1 (stereo not shown)

>  <Assayed system>
rat P2X3 receptor (Rattus norvegicus)

>  <Ki, nM>
18.6

$$$$
>  <Molecule>
CC(NC(=O)c1cc(-c2ccc(Cl)cn2)cc(-n2ncnc2C(F)(F)F)c1)c1cnccn1 (stereo not shown)

>  <Assayed system>
rat P2X3 receptor (Rattus norvegicus)

>  <Ki, nM>
8.51

$$$$

[P] Cc1ccc(-c2cc(-n3ncnc3C(F)(F)F)cc(C(=O)NCc3ncc(C)cn3)c2F)nc1
[Q] COC(C)c1ncnn1-c1cc(C(=O)NCc2cnc(C)cn2)cc(-c2ccc(C)cn2)c1 (stereo not shown)
Hey, between P and Q which has a smaller measured Ki? # answer = label of selected item
Q

====

Molecular target: human P2X2/3 receptor (Homo sapiens, UniProt P56373+Q9UBL9)
Construct: expressed in transfected cells; host or cells: CHO-K1
Sequence (Q9UBL9 whole entry): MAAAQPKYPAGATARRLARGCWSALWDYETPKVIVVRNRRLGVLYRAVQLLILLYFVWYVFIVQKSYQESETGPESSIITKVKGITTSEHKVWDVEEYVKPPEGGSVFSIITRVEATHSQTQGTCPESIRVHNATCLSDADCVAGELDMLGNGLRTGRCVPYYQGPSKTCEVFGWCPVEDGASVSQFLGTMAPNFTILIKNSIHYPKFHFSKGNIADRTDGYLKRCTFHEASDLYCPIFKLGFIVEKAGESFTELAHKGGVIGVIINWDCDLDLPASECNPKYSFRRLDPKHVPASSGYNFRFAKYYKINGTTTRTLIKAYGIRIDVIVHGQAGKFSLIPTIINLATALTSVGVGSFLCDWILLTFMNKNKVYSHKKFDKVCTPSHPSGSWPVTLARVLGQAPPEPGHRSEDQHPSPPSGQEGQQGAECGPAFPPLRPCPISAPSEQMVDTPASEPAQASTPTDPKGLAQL
Sequence (P56373 whole entry): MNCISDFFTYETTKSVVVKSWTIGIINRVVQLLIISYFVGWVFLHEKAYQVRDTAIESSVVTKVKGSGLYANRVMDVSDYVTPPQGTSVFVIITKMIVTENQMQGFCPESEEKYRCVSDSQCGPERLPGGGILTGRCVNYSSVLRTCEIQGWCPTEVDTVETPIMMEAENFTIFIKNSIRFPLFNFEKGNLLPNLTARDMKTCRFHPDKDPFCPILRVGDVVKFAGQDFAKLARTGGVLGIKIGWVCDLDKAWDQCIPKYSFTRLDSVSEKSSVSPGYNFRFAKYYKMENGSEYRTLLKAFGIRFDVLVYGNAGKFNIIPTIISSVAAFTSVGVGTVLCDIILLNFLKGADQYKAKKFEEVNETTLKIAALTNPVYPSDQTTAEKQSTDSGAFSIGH
Assay: P2X3/P2X2/3 FLIPR (Fluorometric Imaging Plate Reader) Assay, P2X2/3
Assay type: cell-based
Details: CHO-K1 cells transfected with human P2X2/3; agonist α,β-meATP 5 μM; Table 1; read-out: P2X2/3 pKi (converted)
Endpoint label: Ki (µM)

These recorded examples may help you get a feel for the data.
>  <Compound>
Cc1cnc(CNC(=O)c2cc(-c3ccc(Cl)cn3)cc(-n3ncnc3C(F)(F)F)c2)cn1

>  <Assayed system>
human P2X2/3 receptor (Homo sapiens, UniProt P56373+Q9UBL9)

>  <Value unit>
µM

>  <Ki>
0.275

$$$$
>  <Compound>
CCCc1ncnn1-c1cc(C(=O)N[C@@H](C)CO)cc(-c2ccc(C)cn2)c1

>  <Assayed system>
human P2X2/3 receptor (Homo sapiens, UniProt P56373+Q9UBL9)

>  <Value unit>
µM

>  <Ki>
2.88

$$$$
>  <Compound>
CC(NC(=O)c1cc(-c2ccc(Cl)cn2)cc(-n2ncnc2CF)c1)c1cnccn1 (centres unmarked)

>  <Assayed system>
human P2X2/3 receptor (Homo sapiens, UniProt P56373+Q9UBL9)

>  <Value unit>
µM

>  <Ki>
2.95

$$$$
>  <Compound>
Cc1ccc(-c2cc(-n3ncnc3C(F)(F)F)cc(C(=O)NCc3ccc(C)nn3)c2F)nc1

>  <Assayed system>
human P2X2/3 receptor (Homo sapiens, UniProt P56373+Q9UBL9)

>  <Value unit>
µM

>  <Ki>
0.0324

$$$$
>  <Compound>
C[C@@H](CO)NC(=O)c1cc(-c2ccc(Cl)cn2)cc(-n2ncnc2C(F)F)c1

>  <Assayed system>
human P2X2/3 receptor (Homo sapiens, UniProt P56373+Q9UBL9)

>  <Value unit>
µM

>  <Ki>
8.71

$$$$

[1] Cc1ccc(-c2cc(-n3ncnc3C(F)(F)F)cc(C(=O)NCc3ncc(C)cn3)c2F)nc1
[2] Cc1ccc(-c2cc(C(=O)NC3CC3)cc(-n3ncnc3C(C)(F)F)c2)nc1
Smaller Ki value? Options are 1 and 2 Selection: enter the item's label.
1
